Where do the numbers come from? From patent US20240050577A1.

# IC50 per entry
System: OVCAR3 cells
protocol.summary: Cell proliferation study (Cell Titer Glo, 72 h)
Assay type: cell-based
settings: Homo sapiens, OVCAR-3, luminescence, read-out: IC50, inhibitory effect on cellular proliferation

The cases that follow already have their IC50 on record.
C[C@@]1(O)CCC[C@H]1n1c(=O)ccc2cnc(NC3CCN(S(=O)(=O)C4CCN(CC5CCN(c6cc7c(cc6F)C(=O)N(C6CCC(=O)NC6=O)C7=O)CC5)CC4)CC3)nc21 (some centres unmarked) | 1000 to 5000 nM
Cc1nc2c(F)cc(-c3nc(NC4CCN(S(=O)(=O)C5CCN(CC6CC(N7CCC(c8cccc(C9CCC(=O)NC9=O)c8)CC7)C6)CC5)CC4)ncc3F)cc2n1C(C)C (centres unmarked) | 101 to 1000 nM
C[C@@]1(O)CCC[C@H]1n1c(=O)ccc2cnc(NC3CCN(S(=O)(=O)C4CCN(C5CC6(C5)CN(C(=O)C5CCN(c7cc8c(cc7F)C(=O)N(C7CCC(=O)NC7=O)C8=O)CC5)C6)CC4)CC3)nc21 (some centres unmarked) | 1000 to 5000 nM
Cc1nc2c(F)cc(-c3nc(Nc4ccc(S(=O)(=O)NCCOCCOCCOCCNc5cccc6c5C(=O)N(C5CCC(=O)NC5=O)C6=O)cc4)ncc3F)cc2n1C(C)C (centres unmarked) | 1000 to 5000 nM

Task: Tell us which IC50 value is on record for C[C@@]1(O)CCC[C@H]1n1c(=O)ccc2cnc(NC3CCN(S(=O)(=O)C4CCN(CC5CC6(CCN(c7cc8c(cc7F)C(=O)N(C7CCC(=O)NC7=O)C8=O)CC6)C5)CC4)CC3)nc21 (some centres unmarked)
Output: 101 to 1000 nM

* * *

Tested on: OVCAR3 cells
protocol.summary: Cell proliferation study (Cell Titer Glo, 72 h)
Assay type: cell-based
settings: Homo sapiens, OVCAR-3, luminescence, read-out: IC50, inhibitory effect on cellular proliferation
Protocol: OVCAR3 (Cobioer, CBP60294) cell line in logarithmic growth phase was used for these experiments. The cell density was adjusted to 1.1×10^4/mL and the cells were inoculated into a 96-well cell culture plate (Corning, 3599), 95 μL per well (the number of cells per well was 1×10^3). […] To each well was added 50 μL Cell Tier Glo (Promega, G7573), and the plate was incubated at room temperature for 10 min, followed by luminescence detection with an enzyme marker. […]
reported.property: IC50

CC(C)N1CCOc2c(F)cc(-c3nc(Nc4ccc(S(=O)(=O)N5CCC(NC(=O)C6CCN(c7cccc8c7C(=O)N(C7CCC(=O)NC7=O)C8=O)CC6)CC5)cc4)ncc3F)cc21 (stereo not drawn) | > 10 µM
CC(C)N1CCOc2c(F)cc(-c3nc(Nc4ccc(S(=O)(=O)N5CCN(C6CCN(C7CN(c8cccc9c8C(=O)N(C8CCC(=O)NC8=O)C9=O)C7)CC6)CC5)cc4)ncc3F)cc21 (stereo not drawn) | > 10 µM

Now turn to the next compound.
Task: Return IC50 (reported value) for this compound: Cc1nc2c(F)cc(-c3nc(NC4CCN(S(=O)(=O)C5CCN(CC6CC(N7CCC(c8ccc9c(C%10CCC(=O)NC%10=O)nn(C)c9c8)CC7)C6)CC5)CC4)ncc3F)cc2n1C(C)C (stereo not drawn)
Output: < 0.1 µM

* * *

target.under.test: CDK1 protein (Homo sapiens)
Construct: host or cells: OVCAR3
Sequence (P06493 whole entry): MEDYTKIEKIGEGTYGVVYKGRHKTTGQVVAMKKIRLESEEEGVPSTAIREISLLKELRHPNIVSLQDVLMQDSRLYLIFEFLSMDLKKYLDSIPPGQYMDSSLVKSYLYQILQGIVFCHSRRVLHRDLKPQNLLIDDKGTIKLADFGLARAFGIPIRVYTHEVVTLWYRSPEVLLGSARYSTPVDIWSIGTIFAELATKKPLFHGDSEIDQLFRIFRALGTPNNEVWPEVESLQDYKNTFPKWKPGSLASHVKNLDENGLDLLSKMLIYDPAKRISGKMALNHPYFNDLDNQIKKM
protocol.summary: CDK1 protein degradation in OVCAR3 cells (Western blot)
Format: cell-based
settings: OVCAR-3, 50 nM test compound, 24 h, read-out: level of CDK1 protein degradation
Recorded percent CDK1 protein degradation at 0.05 µM, one value per entry.

Task: Identify the reported percent CDK1 protein degradation at 0.05 µM for the following entry. Cc1nc2c(F)cc(-c3nc(NC4CCN(S(=O)(=O)C5CCN(CC6CC7(C6)CN(c6cc8c(cc6F)C(=O)N(C6CCC(=O)NC6=O)C8=O)C7)CC5)CC4)ncc3F)cc2n1C(C)C (centres unmarked) [Compound 88]
Output: 31 to 60%

Task: Please report the measured percent CDK1 protein degradation at 0.05 µM for Cc1nc2c(F)cc(-c3nc(NC4CCN(S(=O)(=O)C5CCN(CC6CCN(C7CN(c8cc9c(cc8F)C(=O)N(C8CCC(=O)NC8=O)C9=O)C7)CC6)CC5)CC4)ncc3F)cc2n1C(C)C (centres unmarked) [Compound 80]
Output: ≤ 10%
